Where these numbers come from: paper PMC4335020

Test: Single oral dose human plasma pharmacokinetics of D, DA and DOH after Cogni.Q
Format: in vivo
Settings: both sexes, human, plasma, po, twenty healthy subjects; single oral dose Cogni.Q; plasma (abstract); read-out: mean area under the curve (AUC0-48h)
measurementName: AUC(0-t) (µM·h)
// return numeric value only (unit: µM·h, not printed)

Task: Look up and state reported AUC(0-t) for C/C=C(/C)C(=O)O[C@H]1Cc2cc3ccc(=O)oc3cc2OC1(C)C [DA, decursinol angelate]
Output: 0.335

====

Experiment: Single oral dose human plasma pharmacokinetics of D, DA and DOH after Cogni.Q
Assay type: in vivo
Settings: human, plasma, oral, 4 Cogni.Q vegicaps, subject S18 (180 lb); outlier, excluded from means; read-out: Terminal t1/2, h (converted)
measurementName: half-life (h)
Quick reminder: number only, in h, skip the unit.

Example molecules with recorded half-life:
CC(C)=CC(=O)O[C@H]1Cc2cc3ccc(=O)oc3cc2OC1(C)C : 138
C/C=C(/C)C(=O)O[C@H]1Cc2cc3ccc(=O)oc3cc2OC1(C)C [DA, decursinol angelate] : 55.7

With those in mind, consider the next molecule.
Task: Consider the molecule CC1(C)Oc2cc3oc(=O)ccc3cc2C[C@@H]1O . State its measured half-life.
Output: 16

====

Recorded half-life by entry
Test: Single oral dose human plasma pharmacokinetics of D, DA and DOH after Cogni.Q
Format: in vivo
Conditions: human, plasma, oral, 4 Cogni.Q vegicaps, subject S10 (185 lb); read-out: Terminal t1/2, h (converted)
Procedure: Ten healthy male and 10 female subjects were recruited by public announcement in Amarillo, TX, from January 2013 to April 2013 (see Fig. 1 CONSORT diagram). […] Plasma was prepared by centrifuging the heparinized blood at 1000 g for 15 minutes at room temperature. Urine samples (40mL) were collected within time spans of 0–4, 4–8, 8–12 and 12–24 hours (total volume of urine was recorded). […]
Write it as a number; the unit h goes unstated.

C/C=C(/C)C(=O)O[C@H]1Cc2cc3ccc(=O)oc3cc2OC1(C)C [DA, decursinol angelate] : 13.3
CC(C)=CC(=O)O[C@H]1Cc2cc3ccc(=O)oc3cc2OC1(C)C [D, decursin] : 13.4

Pending molecule:
Task: Given the molecule CC1(C)Oc2cc3oc(=O)ccc3cc2C[C@@H]1O [DOH, decursinol] , write its reported half-life.
Output: 8.8

====

Catalogue of compounds with associated half-life
Assay: Single oral dose human plasma pharmacokinetics of D, DA and DOH after Cogni.Q
Type: in vivo
Conditions: human, plasma, oral, 4 Cogni.Q vegicaps, subject S15 (177 lb); read-out: Terminal t1/2, h (converted)
Answer with a number only, understood to be in h.

For orientation, consider the following solved cases.
CC1(C)Oc2cc3oc(=O)ccc3cc2C[C@@H]1O [DOH, decursinol] : 4.5
CC(C)=CC(=O)O[C@H]1Cc2cc3ccc(=O)oc3cc2OC1(C)C [D, decursin] : 26.5

Now for a further compound.
Task: Find the measured half-life of C/C=C(/C)C(=O)O[C@H]1Cc2cc3ccc(=O)oc3cc2OC1(C)C [DA, decursinol angelate] and report it.
Output: 18.7

====

Assay: Single oral dose human plasma pharmacokinetics of D, DA and DOH after Cogni.Q
Assay type: in vivo
Settings: human, plasma, oral, 4 Cogni.Q vegicaps, subject S3 (170 lb); read-out: Tmax
measurementName: Tmax

Illustrative cases are given below, each with its answer.
CC(C)=CC(=O)O[C@H]1Cc2cc3ccc(=O)oc3cc2OC1(C)C : 4 h
CC1(C)Oc2cc3oc(=O)ccc3cc2C[C@@H]1O : 6 h

Task: For the compound C/C=C(/C)C(=O)O[C@H]1Cc2cc3ccc(=O)oc3cc2OC1(C)C [DA, decursinol angelate] , report Tmax.
Output: 6 h
